- method_summary: Clearance in Sprague-Dawley rat at 10 mg/kg, iv measured upto 24 hrs by LC/MS/MS analysis
- Type: ADME, organism-based
- condition_parameters: in vivo
recorded_metric: clearance

>  <mol>
CN1CCC(Nc2nc(-c3ccnc(F)c3)nc3c2ccn3CCCN2CCCC2)CC1

>  <result>
123 mL/min/kg

$$$$
>  <mol>
CN1CCC(Nc2nc(-c3ccc(C#N)c(F)c3)nc3c2ccn3CCCN2CCCC2)CC1

>  <result>
21.7 mL/min/kg

$$$$
>  <mol>
CN1CCC(Nc2nc(-c3ccc(F)nc3)nc3c2ccn3CCCN2CCCC2)CC1

>  <result>
45 mL/min/kg

$$$$

====

- target_under_test: DNA (cytosine-5)-methyltransferase 1 (Homo sapiens)
- Sequence (P26358 whole entry): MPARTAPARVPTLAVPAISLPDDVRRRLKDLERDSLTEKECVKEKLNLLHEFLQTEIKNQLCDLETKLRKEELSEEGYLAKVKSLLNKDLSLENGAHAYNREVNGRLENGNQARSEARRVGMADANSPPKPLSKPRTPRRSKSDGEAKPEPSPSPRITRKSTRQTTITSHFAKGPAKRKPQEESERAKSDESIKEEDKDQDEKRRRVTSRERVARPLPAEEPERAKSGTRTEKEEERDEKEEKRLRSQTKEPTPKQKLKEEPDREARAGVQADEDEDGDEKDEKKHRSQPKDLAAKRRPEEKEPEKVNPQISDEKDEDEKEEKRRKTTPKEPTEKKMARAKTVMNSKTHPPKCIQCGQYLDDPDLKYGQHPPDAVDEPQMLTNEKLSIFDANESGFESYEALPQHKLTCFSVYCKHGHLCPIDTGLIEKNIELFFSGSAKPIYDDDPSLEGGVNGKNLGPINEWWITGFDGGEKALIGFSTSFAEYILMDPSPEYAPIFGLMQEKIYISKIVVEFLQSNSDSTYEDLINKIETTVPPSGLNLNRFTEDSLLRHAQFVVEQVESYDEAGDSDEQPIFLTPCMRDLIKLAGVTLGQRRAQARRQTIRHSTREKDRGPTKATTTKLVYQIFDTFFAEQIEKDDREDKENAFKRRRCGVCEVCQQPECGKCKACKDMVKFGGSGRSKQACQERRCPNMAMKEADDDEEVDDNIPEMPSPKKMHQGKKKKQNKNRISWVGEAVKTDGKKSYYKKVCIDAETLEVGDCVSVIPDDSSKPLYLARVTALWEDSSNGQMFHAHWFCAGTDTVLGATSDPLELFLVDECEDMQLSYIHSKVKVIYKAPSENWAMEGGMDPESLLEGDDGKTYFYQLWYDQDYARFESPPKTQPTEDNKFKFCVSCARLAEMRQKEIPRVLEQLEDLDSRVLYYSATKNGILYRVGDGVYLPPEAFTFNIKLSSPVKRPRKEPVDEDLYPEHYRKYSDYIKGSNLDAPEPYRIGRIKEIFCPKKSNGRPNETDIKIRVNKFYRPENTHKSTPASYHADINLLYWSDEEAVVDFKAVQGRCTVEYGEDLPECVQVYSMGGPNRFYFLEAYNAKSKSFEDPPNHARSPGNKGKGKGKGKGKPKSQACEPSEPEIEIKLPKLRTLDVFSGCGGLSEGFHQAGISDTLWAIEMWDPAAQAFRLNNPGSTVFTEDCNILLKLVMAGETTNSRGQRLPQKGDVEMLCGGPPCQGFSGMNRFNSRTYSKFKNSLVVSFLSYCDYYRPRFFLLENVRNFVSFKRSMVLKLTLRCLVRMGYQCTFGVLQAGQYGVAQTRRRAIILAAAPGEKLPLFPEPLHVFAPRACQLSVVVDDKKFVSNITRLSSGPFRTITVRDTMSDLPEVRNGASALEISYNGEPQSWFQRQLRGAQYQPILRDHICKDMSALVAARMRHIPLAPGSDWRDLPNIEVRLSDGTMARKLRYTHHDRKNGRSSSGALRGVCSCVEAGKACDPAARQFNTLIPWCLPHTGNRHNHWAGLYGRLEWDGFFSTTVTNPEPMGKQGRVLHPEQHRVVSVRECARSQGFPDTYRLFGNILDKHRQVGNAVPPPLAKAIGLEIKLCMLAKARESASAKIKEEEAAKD
pIC50: −log10 of the molar value.
recorded_metric: pIC50

>  <mol>
CC(C)N1CCC(Nc2nc(-c3ccc(F)cc3)nc3c2ncn3CCCN2CCCC2)CC1

>  <comparison_sign>
=

>  <readout_number>
4.76

$$$$
>  <mol>
CN1CCC(Nc2nc(-c3ccc(N)nc3)nc3c2ccn3CCCN2CCCC2)CC1

>  <comparison_sign>
=

>  <readout_number>
5.79

$$$$
>  <mol>
Cc1ccc(-c2cc(NCC3CCN(C(=O)OCc4ccccc4)CC3)c3cnn(CCCN4CCCC4)c3c2)o1

>  <comparison_sign>
<

>  <readout_number>
4.52

$$$$
>  <mol>
COc1ccc(-c2nc(NC3CCN(C)CC3)c3ccn(CCCN4CCCC4)c3n2)cn1

>  <comparison_sign>
=

>  <readout_number>
5.72

$$$$

====

Reported inhibition values for the following compounds.
- target_under_test: DNA (cytosine-5)-methyltransferase 3A (Homo sapiens)
- Sequence (Q9Y6K1 whole entry, looked up): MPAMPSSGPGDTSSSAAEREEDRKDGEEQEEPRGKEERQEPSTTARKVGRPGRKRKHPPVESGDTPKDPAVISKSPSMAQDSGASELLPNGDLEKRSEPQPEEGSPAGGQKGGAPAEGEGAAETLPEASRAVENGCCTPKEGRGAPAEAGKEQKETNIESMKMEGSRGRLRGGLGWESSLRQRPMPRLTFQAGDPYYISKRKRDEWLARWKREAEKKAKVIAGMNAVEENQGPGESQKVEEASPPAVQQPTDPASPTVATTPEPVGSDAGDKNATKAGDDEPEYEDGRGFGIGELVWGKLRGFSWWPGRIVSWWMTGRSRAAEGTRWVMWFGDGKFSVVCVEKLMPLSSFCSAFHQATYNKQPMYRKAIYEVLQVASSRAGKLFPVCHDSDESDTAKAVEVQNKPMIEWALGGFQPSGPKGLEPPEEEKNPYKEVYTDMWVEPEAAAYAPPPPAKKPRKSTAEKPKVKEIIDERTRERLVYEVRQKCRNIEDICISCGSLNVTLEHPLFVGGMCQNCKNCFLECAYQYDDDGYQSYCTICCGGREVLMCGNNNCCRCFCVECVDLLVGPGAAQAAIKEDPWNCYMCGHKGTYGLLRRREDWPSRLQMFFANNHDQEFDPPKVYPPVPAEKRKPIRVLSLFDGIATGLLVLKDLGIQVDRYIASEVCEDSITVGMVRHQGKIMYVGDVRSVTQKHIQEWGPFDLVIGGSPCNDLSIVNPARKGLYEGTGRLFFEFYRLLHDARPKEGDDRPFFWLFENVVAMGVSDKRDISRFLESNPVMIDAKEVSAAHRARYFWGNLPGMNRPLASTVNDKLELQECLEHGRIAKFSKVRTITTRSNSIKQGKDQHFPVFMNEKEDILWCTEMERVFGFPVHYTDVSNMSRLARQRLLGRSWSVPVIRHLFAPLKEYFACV
- method_summary: Inhibition of DNMT3A (unknown origin) at 5 uM preincubated for 15 mins followed by substrate and [3H-SAM] addition and measured after 60 mins by microbeta analysis relative to control
- condition_parameters: time 75.0 min

>  <mol>
CN1CCC(Nc2nc(-c3ccc(F)cc3)nc3c2ccn3CCCN2CCCC2)CC1

>  <inhibition>
13%

$$$$
>  <mol>
CN1CCC(Nc2nc(N3CCN(C)CC3)nc3c2ccn3CCCN2CCOCC2)CC1

>  <inhibition>
9.5%

$$$$
>  <mol>
Cc1ccc(-c2cc(NCC3CCN(C(=O)OC(C)(C)C)CC3)c3cnn(CCCN4CCCC4)c3c2)o1

>  <inhibition>
17%

$$$$
>  <mol>
CN1CCC(Nc2nc(N3CCN(C)CC3)nc3c2ccn3CCCN2CCCC2)CC1

>  <inhibition>
11%

$$$$
>  <mol>
CN1CCC(Nc2nc(-c3ccc(C#N)c(F)c3)nc3c2ccn3CCCN2CCCC2)CC1

>  <inhibition>
11%

$$$$

====

- System: U-937
- method_summary: Antiproliferative activity against human U-937 cells assessed as inhibition of cell viability measured after 72 hrs by MTT assay
- Format: functional, cell-based
- condition_parameters: U-937, 72 h
pIC50: −log10 of the molar value.

>  <mol>
CN1CCN(c2cc(NCC3CCN(C(=O)OC(C)(C)C)CC3)c3cnn(CCCN4CCOCC4)c3c2)CC1

>  <target_under_test>
U-937

>  <comparison_sign>
=

>  <pIC50>
4.62

$$$$
>  <mol>
CN1CCC(Nc2nc(-c3ccncc3)nc3c2ccn3CCCN2CCCC2)CC1

>  <target_under_test>
U-937

>  <comparison_sign>
=

>  <pIC50>
5.00

$$$$
>  <mol>
Cc1ccc(-c2nc(NC3CCN(C)CC3)c3ccn(CCCN4CCCC4)c3n2)o1

>  <target_under_test>
U-937

>  <comparison_sign>
=

>  <pIC50>
4.36

$$$$
>  <mol>
CC(C)N1CCC(Nc2nc(-c3ccc(F)cc3)nc3c2ncn3CCCN2CCCC2)CC1

>  <target_under_test>
U-937

>  <comparison_sign>
=

>  <pIC50>
4.89

$$$$
>  <mol>
CN1CCC(Nc2nc(-c3ccc(C(F)(F)F)cc3)nc3c2ccn3CCCN2CCCC2)CC1

>  <target_under_test>
U-937

>  <comparison_sign>
=

>  <pIC50>
6.01

$$$$
>  <mol>
CC(C)(C)OC(=O)N1CCC(CNc2cc(-c3ccc(F)cc3)cc3c2cnn3CCCN2CCCC2)CC1

>  <target_under_test>
U-937

>  <comparison_sign>
=

>  <pIC50>
5.97

$$$$
>  <mol>
CC(C)N1CCC(Nc2nc(-c3cn[nH]c3)nc3c2ncn3CCCN2CCCC2)CC1

>  <target_under_test>
U-937

>  <comparison_sign>
<

>  <pIC50>
4.00

$$$$
>  <mol>
CN1CCC(Nc2nc(-c3cn[nH]c3)nc3c2ccn3CCCN2CCCC2)CC1

>  <target_under_test>
U-937

>  <comparison_sign>
<

>  <pIC50>
4.00

$$$$
>  <mol>
CN1CCC(Nc2nc(-c3ccnc(F)c3)nc3c2ccn3CCCN2CCCC2)CC1

>  <target_under_test>
U-937

>  <comparison_sign>
=

>  <pIC50>
5.66

$$$$
>  <mol>
CN1CCC(Nc2nc(N3CCCC3)nc3c2ccn3CCCN2CCCC2)CC1

>  <target_under_test>
U-937

>  <comparison_sign>
=

>  <pIC50>
4.33

$$$$
>  <mol>
CC(C)N1CCC(Nc2nc(N3CCN(C)CC3)nc3c2ncn3CCCN2CCCC2)CC1

>  <target_under_test>
U-937

>  <comparison_sign>
=

>  <pIC50>
4.85

$$$$
>  <mol>
CN1CCC(Nc2nc(N3CCCN(C)CC3)nc3c2ccn3CCCN2CCCC2)CC1

>  <target_under_test>
U-937

>  <comparison_sign>
=

>  <pIC50>
4.36

$$$$
>  <mol>
CN1CCC(Nc2nc(N3CCCCC3)nc3c2ccn3CCCN2CCOCC2)CC1

>  <target_under_test>
U-937

>  <comparison_sign>
=

>  <pIC50>
4.39

$$$$
>  <mol>
CN1CCC(Nc2nc(-c3ccc(F)nc3)nc3c2ccn3CCCN2CCCC2)CC1

>  <target_under_test>
U-937

>  <comparison_sign>
=

>  <pIC50>
5.58

$$$$
>  <mol>
CN1CCC(Nc2nc(-c3ccc(C#N)c(F)c3)nc3c2ccn3CCCN2CCCC2)CC1

>  <target_under_test>
U-937

>  <comparison_sign>
=

>  <pIC50>
5.92

$$$$
>  <mol>
CN1CCC(Nc2nc(N3CCCCC3)nc3c2ccn3CCCN2CCCC2)CC1

>  <target_under_test>
U-937

>  <comparison_sign>
=

>  <pIC50>
4.75

$$$$
>  <mol>
CN1CCC(Nc2nc(N3CCN(C)CC3)nc3c2ccn3CCCN2CCCC2)CC1

>  <target_under_test>
U-937

>  <comparison_sign>
=

>  <pIC50>
4.51

$$$$
>  <mol>
CN1CCC(Nc2nc(-c3ccc(N)nc3)nc3c2ccn3CCCN2CCCC2)CC1

>  <target_under_test>
U-937

>  <comparison_sign>
=

>  <pIC50>
4.57

$$$$
>  <mol>
CN1CCC(Nc2nc(N3CCN(C)CC3)nc3c2ccn3CCCN2CCOCC2)CC1

>  <target_under_test>
U-937

>  <comparison_sign>
=

>  <pIC50>
4.23

$$$$
>  <mol>
Cc1cc(Nc2ccc(NC(=O)c3ccc(Nc4ccnc5ccccc45)cc3)cc2)nc(N)n1

>  <target_under_test>
U-937

>  <comparison_sign>
=

>  <pIC50>
5.39

$$$$
>  <mol>
CC(C)N1CCC(Nc2nc(N3CCCCC3)nc3c2ncn3CCCN2CCCC2)CC1

>  <target_under_test>
U-937

>  <comparison_sign>
<

>  <pIC50>
4.00

$$$$
>  <mol>
CC(C)N1CCC(Nc2nc(N3CCCCC3)nc3c2ccn3CCCN2CCCC2)CC1

>  <target_under_test>
U-937

>  <comparison_sign>
=

>  <pIC50>
4.84

$$$$
>  <mol>
Cc1ccc(-c2cc(NCC3CCNCC3)c3cnn(CCCN4CCCC4)c3c2)o1

>  <target_under_test>
U-937

>  <comparison_sign>
=

>  <pIC50>
5.05

$$$$

====

- target_under_test: DNA (cytosine-5)-methyltransferase 3A (Homo sapiens)
- method_summary: Inhibition of DNMT3A (unknown origin) at 5 uM preincubated for 15 mins followed by substrate and [3H-SAM] addition and measured after 60 mins by microbeta analysis relative to control
- condition_parameters: time 75.0 min

>  <mol>
CN1CCC(Nc2nc(N3CCCC3)nc3c2ccn3CCCN2CCCC2)CC1

>  <inhibition, %>
4.2

$$$$
>  <mol>
CN1CCC(Nc2nc(-c3ccc(F)nc3)nc3c2ccn3CCCN2CCOCC2)CC1

>  <inhibition, %>
16

$$$$
>  <mol>
CN1CCC(Nc2nc(-c3ccncc3)nc3c2ccn3CCCN2CCCC2)CC1

>  <inhibition, %>
8.5

$$$$
>  <mol>
CC(C)N1CCC(Nc2nc(N3CCOCC3)nc3c2ccn3CCCN2CCCC2)CC1

>  <inhibition, %>
2.6

$$$$
>  <mol>
CC(C)N1CCC(Nc2nc(N3CCCCC3)nc3c2ncn3CCCN2CCCC2)CC1

>  <inhibition, %>
4.3

$$$$
>  <mol>
CN1CCC(Nc2nc(-c3ccccc3)nc3c2ccn3CCCN2CCCC2)CC1

>  <inhibition, %>
8.6

$$$$
>  <mol>
CC(C)N1CCC(Nc2nc(-c3cn[nH]c3)nc3c2ncn3CCCN2CCCC2)CC1

>  <inhibition, %>
8.6

$$$$
>  <mol>
Cc1ccc(-c2nc(NC3CCN(C)CC3)c3ccn(CCCN4CCCC4)c3n2)o1

>  <inhibition, %>
16.5

$$$$
>  <mol>
CN1CCC(Nc2nc(-c3cn[nH]c3)nc3c2ccn3CCCN2CCCC2)CC1

>  <inhibition, %>
7.2

$$$$
>  <mol>
CN1CCC(Nc2nc(-c3ccc(N)nc3)nc3c2ccn3CCCN2CCCC2)CC1

>  <inhibition, %>
17

$$$$
>  <mol>
Cc1ccc(-c2nc(NC3CCN(C(C)C)CC3)c3ncn(CCCN4CCCC4)c3n2)o1

>  <inhibition, %>
22

$$$$
>  <mol>
COc1ccc(-c2cc(NCC3CCN(Cc4ccccc4)CC3)c3cnn(CCCN4CCCC4)c3c2)cc1

>  <inhibition, %>
24

$$$$
>  <mol>
CN1CCC(Nc2nc(N3CCOCC3)nc3c2ccn3CCCN2CCCC2)CC1

>  <inhibition, %>
-1.8

$$$$
>  <mol>
CC(C)N1CCC(Nc2nc(N3CCCCC3)nc3c2ccn3CCCN2CCCC2)CC1

>  <inhibition, %>
0.8

$$$$
>  <mol>
CN1CCC(Nc2nc(-c3ccc(C(F)(F)F)cc3)nc3c2ccn3CCCN2CCCC2)CC1

>  <inhibition, %>
9.7

$$$$
>  <mol>
Cc1ccc(-c2cc(NCC3CCN(C(=O)OCc4ccccc4)CC3)c3cnn(CCCN4CCCC4)c3c2)o1

>  <inhibition, %>
12

$$$$
